System: Pseudomonas aeruginosa
Test: Antibacterial activity against Pseudomonas aeruginosa ATCC […] after 24 hr by CLSI broth microdilution method
Format: functional
Settings: ATCC 25853, 24 h
Would you kindly list MIC for each of these compounds?
Provide only the numeric value, understood in µg/mL.

Problem: I am curious: what MIC value has been reported for "O=C(Cc1ccc(Cl)cc1)Nc1ccc(-c2nc3ccccc3s2)cc1" ?
Result: 25

Problem: I am curious: what MIC value has been reported for "COc1ccc(CC(=O)Nc2ccc(-c3nc4ccccc4s3)cc2)cc1" ?
Result: 25

Problem: I am curious: what MIC value has been reported for "O=C(Nc1ccc(-c2nc3ccccc3s2)cc1)c1ccc([N+](=O)[O-])cc1" ?
Result: 25

Problem: I am curious: what MIC value has been reported for "Cc1ccc(CC(=O)Nc2ccc(-c3nc4ccccc4s3)cc2)cc1" ?
Result: 25

Problem: I am curious: what MIC value has been reported for "O=C(Nc1ccc(-c2nc3ccccc3s2)cc1)c1ccc(Br)cc1" ?
Result: 25

Problem: I am curious: what MIC value has been reported for "O=C(Nc1ccc(-c2nc3ccccc3s2)cc1)c1ccc(F)cc1" ?
Result: 25

Problem: I am curious: what MIC value has been reported for "CCc1ccc(C(=O)Nc2ccc(-c3nc4ccccc4s3)cc2)cc1" ?
Result: 25

Problem: I am curious: what MIC value has been reported for "O=C(Cc1ccc(Br)cc1)Nc1ccc(-c2nc3ccccc3s2)cc1" ?
Result: 12.5

Problem: I am curious: what MIC value has been reported for "CC(C)(C)c1ccc(C(=O)Nc2ccc(-c3nc4ccccc4s3)cc2)cc1" ?
Result: 25

Problem: I am curious: what MIC value has been reported for CC1COc2c(N3CCN(C)CC3)c(F)cc3c(=O)c(C(=O)O)cn1c23 (configuration not stated) ?
Result: 6.25

Problem: I am curious: what MIC value has been reported for "O=C(Cc1ccc(F)cc1)Nc1ccc(-c2nc3ccccc3s2)cc1" ?
Result: 25

Problem: I am curious: what MIC value has been reported for "O=C(Nc1ccc(-c2nc3ccccc3s2)cc1)c1ccc(Cl)cc1" ?
Result: 25
